Reference source for all entries: paper PMC6211260

Tested on: MDA-MB-468 breast cancer cell line
Experiment: NCI five-dose testing
Format: cell-based
Conditions: Homo sapiens, MDA-MB-468
Method: Screening against the cancer cell lines was carried out at the National Cancer Institute (NCI, Bethesda, Maryland, USA) applying the standard protocol of the NCI[22].
Criterion: IC50 strictly under 3000 nM. Met: Met. Not met: Not met.

[
  {
    "compound": "O=S(=O)(NCCNc1cc(-c2cn(-c3ccccc3)nc2-c2cccc(O)c2)ccn1)c1ccc(C(F)(F)F)cc1 [Compound 1o]",
    "target-under-test": "MDA-MB-468 breast cancer cell line",
    "cat": "Met"
  },
  {
    "compound": "COc1cccc(-c2nn(-c3ccccc3)cc2-c2ccnc(NCCCNS(=O)(=O)c3ccc(C(F)(F)F)cc3)c2)c1 [Compound 2g]",
    "target-under-test": "MDA-MB-468 breast cancer cell line",
    "cat": "Not met"
  },
  {
    "compound": "O=S(=O)(NCCCNc1cc(-c2cn(-c3ccccc3)nc2-c2cccc(O)c2)ccn1)c1ccc(Br)cc1 [Compound 2k]",
    "target-under-test": "MDA-MB-468 breast cancer cell line",
    "cat": "Met"
  },
  {
    "compound": "O=S(=O)(NCCCNc1cc(-c2cn(-c3ccccc3)nc2-c2cccc(O)c2)ccn1)c1ccc(C(F)(F)F)cc1 [Compound 2o]",
    "target-under-test": "MDA-MB-468 breast cancer cell line",
    "cat": "Met"
  },
  {
    "compound": "O=S(=O)(NCCCNc1cc(-c2cn(-c3ccccc3)nc2-c2cccc(O)c2)ccn1)c1cccc2ccccc12 [Compound 2q]",
    "target-under-test": "MDA-MB-468 breast cancer cell line",
    "cat": "Met"
  },
  {
    "compound": "COc1cccc(-c2nn(-c3ccccc3)cc2-c2ccnc(NCCCNS(=O)(=O)c3cccc(F)c3)c2)c1 [Compound 2h]",
    "target-under-test": "MDA-MB-468 breast cancer cell line",
    "cat": "Not met"
  },
  {
    "compound": "O=S(=O)(NCCCNc1cc(-c2cn(-c3ccccc3)nc2-c2cccc(O)c2)ccn1)c1ccc(F)cc1 [Compound 2m]",
    "target-under-test": "MDA-MB-468 breast cancer cell line",
    "cat": "Met"
  },
  {
    "compound": "COc1cccc(-c2nn(-c3ccccc3)cc2-c2ccnc(NCCNS(=O)(=O)c3ccc(C(F)(F)F)cc3)c2)c1 [Compound 1g]",
    "target-under-test": "MDA-MB-468 breast cancer cell line",
    "cat": "Not met"
  },
  {
    "compound": "CNC(=O)c1cc(Oc2ccc(NC(=O)Nc3ccc(Cl)c(C(F)(F)F)c3)cc2)ccn1 [Sorafenib, reference compound]",
    "target-under-test": "MDA-MB-468 breast cancer cell line",
    "cat": "Met"
  }
]

* * *

IC (TGI) values, listed per item
test system: HT-29 colon cancer cell line; test: NCI five-dose testing; type: cell-based; conditions: Homo sapiens, HT-29; read-out: TGI (total growth inhibition concentration)
measure: IC (TGI) (µM)

[
  {
    "compound": "O=S(=O)(NCCNc1cc(-c2cn(-c3ccccc3)nc2-c2cccc(O)c2)ccn1)c1ccc(C(F)(F)F)cc1 [Compound 1o]",
    "assay-value": 5.4
  },
  {
    "compound": "O=S(=O)(NCCCNc1cc(-c2cn(-c3ccccc3)nc2-c2cccc(O)c2)ccn1)c1cccc2ccccc12 [Compound 2q]",
    "assay-value": 1.7
  },
  {
    "compound": "COc1cccc(-c2nn(-c3ccccc3)cc2-c2ccnc(NCCCNS(=O)(=O)c3ccc(C(F)(F)F)cc3)c2)c1 [Compound 2g]",
    "assay-value": 10
  },
  {
    "compound": "O=S(=O)(NCCCNc1cc(-c2cn(-c3ccccc3)nc2-c2cccc(O)c2)ccn1)c1ccc(Br)cc1 [Compound 2k]",
    "assay-value": 2.3
  }
]

* * *

melting point values, listed per item

[
  {
    "compound": "COc1cccc(-c2nn(-c3ccccc3)cc2-c2ccnc(NCCNS(=O)(=O)c3cccc(F)c3)c2)c1 [Compound 1h]",
    "melting point": "118 to 120 °C"
  },
  {
    "compound": "COc1cccc(-c2nn(-c3ccccc3)cc2-c2ccnc(NCCNS(=O)(=O)c3cccc4ccccc34)c2)c1 [Compound 1i]",
    "melting point": "178 to 180 °C"
  },
  {
    "compound": "Cc1ccc(S(=O)(=O)NCCNc2cc(-c3cn(-c4ccccc4)nc3-c3cccc(O)c3)ccn2)cc1 [Compound 1n]",
    "melting point": "114 to 116 °C"
  },
  {
    "compound": "O=S(=O)(NCCNc1cc(-c2cn(-c3ccccc3)nc2-c2cccc(O)c2)ccn1)c1cccc(F)c1 [Compound 1p]",
    "melting point": "146 to 148 °C"
  },
  {
    "compound": "Cc1ccc(S(=O)(=O)NCCCNc2cc(-c3cn(-c4ccccc4)nc3-c3cccc(O)c3)ccn2)cc1 [Compound 2n]",
    "melting point": "158 to 160 °C"
  },
  {
    "compound": "O=S(=O)(NCCNc1cc(-c2cn(-c3ccccc3)nc2-c2cccc(O)c2)ccn1)c1cccc2ccccc12 [Compound 1q]",
    "melting point": "146 to 148 °C"
  },
  {
    "compound": "O=S(=O)(NCCNc1cc(-c2cn(-c3ccccc3)nc2-c2cccc(O)c2)ccn1)c1ccccc1 [Compound 1j]",
    "melting point": "100 to 102 °C"
  },
  {
    "compound": "COc1ccc(S(=O)(=O)NCCNc2cc(-c3cn(-c4ccccc4)nc3-c3cccc(OC)c3)ccn2)cc1 [Compound 1e]",
    "melting point": "144 to 146 °C"
  },
  {
    "compound": "COc1cccc(-c2nn(-c3ccccc3)cc2-c2ccnc(NCCCNS(=O)(=O)c3cccc4ccccc34)c2)c1 [Compound 2i]",
    "melting point": "134 to 136 °C"
  },
  {
    "compound": "COc1cccc(-c2nn(-c3ccccc3)cc2-c2ccnc(NCCNS(=O)(=O)c3ccc(C)cc3)c2)c1 [Compound 1f]",
    "melting point": "150 to 152 °C"
  },
  {
    "compound": "COc1cccc(-c2nn(-c3ccccc3)cc2-c2ccnc(NCCCNS(=O)(=O)c3ccccc3)c2)c1 [Compound 2a]",
    "melting point": "119 to 120 °C"
  },
  {
    "compound": "O=S(=O)(NCCCNc1cc(-c2cn(-c3ccccc3)nc2-c2cccc(O)c2)ccn1)c1ccccc1 [Compound 2j]",
    "melting point": "154 to 156 °C"
  },
  {
    "compound": "COc1cccc(-c2nn(-c3ccccc3)cc2-c2ccnc(NCCNS(=O)(=O)c3ccccc3)c2)c1 [Compound 1a]",
    "melting point": "104 to 106 °C"
  },
  {
    "compound": "COc1cccc(-c2nn(-c3ccccc3)cc2-c2ccnc(NCCCNS(=O)(=O)c3ccc(C)cc3)c2)c1 [Compound 2f]",
    "melting point": "94 to 96 °C"
  },
  {
    "compound": "COc1ccc(S(=O)(=O)NCCCNc2cc(-c3cn(-c4ccccc4)nc3-c3cccc(OC)c3)ccn2)cc1 [Compound 2e]",
    "melting point": "124 to 126 °C"
  }
]

* * *

molecular target: P38a/MAPK14 (Homo sapiens); experiment: In vitro kinase screening (Kinase HotSpot); conditions: MAPK14
Sequence (Q16539 whole entry): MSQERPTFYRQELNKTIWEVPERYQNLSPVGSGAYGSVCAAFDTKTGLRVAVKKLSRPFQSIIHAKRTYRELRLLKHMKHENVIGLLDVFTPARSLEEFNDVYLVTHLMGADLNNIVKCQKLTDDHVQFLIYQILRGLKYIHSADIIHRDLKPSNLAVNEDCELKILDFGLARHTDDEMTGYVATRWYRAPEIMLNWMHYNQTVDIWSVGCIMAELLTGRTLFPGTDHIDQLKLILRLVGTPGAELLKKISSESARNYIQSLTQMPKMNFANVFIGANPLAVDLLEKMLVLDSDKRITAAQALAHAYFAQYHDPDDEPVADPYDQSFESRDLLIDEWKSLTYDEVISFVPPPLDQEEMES
pIC50: −log10 of the molar value.

[
  {
    "chemical-string": "O=S(=O)(NCCCNc1cc(-c2cn(-c3ccccc3)nc2-c2cccc(O)c2)ccn1)c1ccc(Cl)cc1",
    "pIC50": 5.95
  }
]

* * *

test system: PC-3 prostate cancer cell line; assay: NCI five-dose testing; type: cell-based; settings: PC-3; read-out: IC50
Criterion: IC50 strictly under 2000 nM. Met: label 1. Not met: label 0.

[
  {
    "compound": "O=S(=O)(NCCCNc1cc(-c2cn(-c3ccccc3)nc2-c2cccc(O)c2)ccn1)c1ccc(Cl)cc1 [Compound 2l]",
    "cat": "label 1"
  },
  {
    "compound": "O=S(=O)(NCCNc1cc(-c2cn(-c3ccccc3)nc2-c2cccc(O)c2)ccn1)c1ccc(F)cc1 [Compound 1m]",
    "cat": "label 0"
  },
  {
    "compound": "O=S(=O)(NCCNc1cc(-c2cn(-c3ccccc3)nc2-c2cccc(O)c2)ccn1)c1ccc(Br)cc1 [Compound 1k]",
    "cat": "label 0"
  },
  {
    "compound": "O=S(=O)(NCCNc1cc(-c2cn(-c3ccccc3)nc2-c2cccc(O)c2)ccn1)c1ccc(Cl)cc1 [Compound 1l]",
    "cat": "label 0"
  },
  {
    "compound": "COc1cccc(-c2nn(-c3ccccc3)cc2-c2ccnc(NCCNS(=O)(=O)c3ccc(Cl)cc3)c2)c1 [Compound 1c]",
    "cat": "label 0"
  }
]
